Tested on: Escherichia coli strain MC4100 IMP-4213, which harbors an LptD mutation
Details: E. coli MC4100 IMP-4213; 35° C., 22 hours
Where a SMILES comes first, the peptide text is derived from it. [ ]: non-standard residue; d: D form. The star is where a group is joined. boroAla((+)-pinanediol) = C[C@H](N*)B1O[C@@H]2C[C@@H]3C[C@@H](C3(C)C)[C@]2(C)O1; Benzoyl(4-(4-Cl-Ph)) = O=C(c1ccc(-c2ccc(Cl)cc2)cc1)*; Ethanesulfonyl(2-NHDecyl) = CCCCCCCCCCNCCS(=O)(=O)*; X11 = CCCCc1ccc(-c2nc(C(=O)*)cs2)cc1; Decanoyl = CCCCCCCCCC(=O)*; X6 = NCCCCCCCCCCCCCCC(=O)*; X7 = C[C@H](N*)C(=O)C1CO1; Dab = NCC[C@H](N)C(=O)O
observation type: MIC (μg/mL) E. coli (µg/mL)
Give bare numbers, in µg/mL.

compound	MIC (μg/mL) E. coli (µg/mL)
CCCCCCCCCCNCCNCC(=O)N[C@H](C(=O)N[C@@H](C)C(=O)N[C@@H](CCCCN)C(=O)N[C@@H](C)B1O[C@@H]2C[C@@H]3C[C@@H](C3(C)C)[C@]2(C)O1)[C@@H](C)O [Compound 244]	64
CCCCCCCCCC(=O)NCC(=O)N[C@@H](CCCCN)C(=O)N[C@H](C(=O)N[C@@H](C)C(=O)N[C@@H](CCCCN)C(=O)N[C@@H](C)B1O[C@@H]2C[C@@H]3C[C@@H](C3(C)C)[C@]2(C)O1)[C@@H](C)O [Compound 259] (Decanoyl-GKTAK-{boroAla((+)-pinanediol)})	64
CCCCc1ccc(-c2ccc(CN(CCCN)C(=O)N[C@H](C(=O)N[C@@H](C)C(=O)N[C@@H](CCCCN)C(=O)N[C@@H](C)B3OC4C[C@@H]5C[C@@H](C5(C)C)[C@]4(C)O3)[C@@H](C)O)cc2)cc1 (some centres unmarked) [Compound 132]	32
C[C@H](NC(=O)[C@H](CCCCN)NC(=O)[C@H](C)NC(=O)[C@@H](NC(=O)[C@H](CCN)NC(=O)CCCCCCCCCCCCCCN)[C@@H](C)O)B1O[C@@H]2C[C@@H]3C[C@@H](C3(C)C)[C@]2(C)O1 [Compound 116] (X6-[Dab]TAK-{boroAla((+)-pinanediol)})	32
CCCCc1ccc(-c2nc(C(=O)N[C@@H](CCN)C(=O)N[C@H](C(=O)N[C@@H](C)C(=O)N[C@@H](CCCCN)C(=O)N[C@@H](C)B3O[C@@H]4C[C@@H]5C[C@@H](C5(C)C)[C@]4(C)O3)[C@@H](C)O)cs2)cc1 [Compound 121] (X11-[Dab]TAK-{boroAla((+)-pinanediol)})	1.3

Provide the reported MIC (μg/mL) E. coli of each entry below, same order.
1. C[C@H](NC(=O)[C@@H](NC(=O)[C@H](CCN)NC(=O)c1ccc(-c2ccc(Cl)cc2)cc1)[C@@H](C)O)C(=O)N[C@@H](CCCCN)C(=O)N[C@@H](C)C(=O)C1CO1 (some centres unmarked) [Compound 216] ({Benzoyl(4-(4-Cl-Ph))}-[Dab]TAK-X7)
2. CCCCCCCCCCNCCS(=O)(=O)N[C@@H](CCCCN)C(=O)N[C@H](C(=O)N[C@@H](C)C(=O)N[C@@H](CCCCN)C(=O)N[C@@H](C)B1O[C@@H]2C[C@@H]3C[C@@H](C3(C)C)[C@]2(C)O1)[C@@H](C)O [Compound 237] ({Ethanesulfonyl(2-NHDecyl)}-KTAK-{boroAla((+)-pinanediol)})

Reply text:
1: 16; 2: 32
